Recorded values, source patent US20220098304A1.

- System name: T1, Human PD-1-His protein (Cat. #10377H08H, Sino Biological) (human, UniProt Q15116 25-167)
- T1 construct: Bought protein; also called hPD-1-His; hu PD-1-his; not shown: His tag of the bought protein
- T1 sequence (Q15116 25-167 limits assumed): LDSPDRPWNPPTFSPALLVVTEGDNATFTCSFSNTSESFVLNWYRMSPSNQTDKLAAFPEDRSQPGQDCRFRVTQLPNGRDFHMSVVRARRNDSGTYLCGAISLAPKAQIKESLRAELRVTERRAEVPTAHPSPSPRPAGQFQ
- Protocol: SPR (Biacore), antibody captured on Protein A chip, PD-1 in flow
Can you tell me kon for the items I'm about to list?
Your answer is read as M⁻¹ s⁻¹, so omit the unit and give the number.

Could you share which kon value was measured for Hu23-11.IgG4AA (antibody, V domains shown, Full-length IgG4-AA, kappa; also called Hu23LCDR1 (N28T)) VH: EVQLVQSGAEVKKPGSSVKVSCKASGGTFSDYEMHWVRQAPGQGLEWMGLIDPETGGTVYNQKFKDRVTITADKSTSTAYMELSSLRSEDTAVYYCARERFSYYGSTSDWYFDVWGQGTTVTVSS VL: DIVMTQTPLSLPVTPGEPASISCRSSQSLVHSTGNTYLEWYLQKPGQSPQLLIYKVSNRFSGVPDRFSGSGSGTDFTLKISRVEAEDVGVYYCFQGSHVPYTFGGGTKVEIKR ? 42200

murine antibody M33 (antibody, V domains shown) VH: KVMLVESGGGLVKPGGSLKLSCAASGFTFSSYAMSWVRQTPEKRLEWVATISGGGVDTYYQDNVQGRFTISRDNAKNTLYLQMSSLRSEDTALYYCASPYGHGYFDVWGTGTTVTVSS VL: DIQMTQTTSSLSASLGDRVTISCRASQDINNFLNWYQQKPDGTVKLLIYYTSSLHSGVPSRFSGSGSGTDYSLTISNLEQEDIATYFCQQGNTLPWTFGGGTKLEIK , same question. 308000

Hu23-9.IgG4AA (antibody, V domains shown, Full-length IgG4-AA, kappa; also called Hu23LCDR1 (N28Q)) VH: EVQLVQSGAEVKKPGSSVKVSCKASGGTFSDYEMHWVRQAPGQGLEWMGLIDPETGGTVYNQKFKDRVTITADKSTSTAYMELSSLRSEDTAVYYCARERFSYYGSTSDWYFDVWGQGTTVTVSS VL: DIVMTQTPLSLPVTPGEPASISCRSSQSLVHSQGNTYLEWYLQKPGQSPQLLIYKVSNRFSGVPDRFSGSGSGTDFTLKISRVEAEDVGVYYCFQGSHVPYTFGGGTKVEIKR , same question. 61600
